Tested on: BX-PC3 pancreatic cancer cells
ASSAY EXPLANATION: BX-PC3 cell viability (MTS assay)
Assay type: cell-based
MEASUREMENT SETUP: Homo sapiens, BXPC-3; inhibition of growth of BX-PC3 pancreatic cancer cells; incubation time 48 h
MEASURED PARAMETER: IC50 (nM)
Please respond with the number in nM and leave the unit unwritten.

Param item = COc1ccc(-c2cn(-c3ccccn3)cc2C(=O)c2cc(OC)c(OC)c(OC)c2)cc1 [Compound 4] ; retrieve measured IC50.
17

----------
The molecules listed here are annotated with their Colch. binding (% ± SD).
System: tubulin
ASSAY EXPLANATION: Inhibition of [3H]colchicine binding to tubulin
MEASUREMENT SETUP: inhibition of [3H]colchicine binding; tubulin, [3H]colchicine, inhibitor at 1, 5 and 5 μM
Please respond with the number in % and leave the unit unwritten.

Worked examples, 4 molecules total:
* COc1cc(C(=O)c2cn(-c3ncccn3)cc2-c2ccc(F)cc2)cc(OC)c1OC | 70
* COc1cc(C(=O)c2cn(-c3ncccn3)c3ccc(Cl)cc23)cc(OC)c1OC | 34
* COc1cc(C(=O)c2cn(-c3cccnc3)cc2-c2ccc(C)cc2)cc(OC)c1OC | 20
* COc1cc(C(=O)c2cn(-c3ncccn3)cc2-c2ccc(C(F)(F)F)cc2)cc(OC)c1OC | 18

Param item = COc1cc(C(=O)c2cn(-c3ccccn3)c3ccc(Cl)cc23)cc(OC)c1OC ; retrieve measured Colch. binding (% ± SD).
36

Param item = COc1cc(C(=O)c2cn(-c3cccnc3)c3ccc(Cl)cc23)cc(OC)c1OC ; retrieve measured Colch. binding (% ± SD).
23

Param item = COc1cc(OC)cc(-c2cn(-c3ncccn3)cc2C(=O)c2cc(OC)c(OC)c(OC)c2)c1 ; retrieve measured Colch. binding (% ± SD).
25
